TESTED_ON: lipoxygenase (Rattus norvegicus, UniProt P12527)
Construct: endogenous in cells; host or cells: pleural exudate cells of carrageenan-treated Sprague-Dawley rats
Sequence (P12527 whole entry): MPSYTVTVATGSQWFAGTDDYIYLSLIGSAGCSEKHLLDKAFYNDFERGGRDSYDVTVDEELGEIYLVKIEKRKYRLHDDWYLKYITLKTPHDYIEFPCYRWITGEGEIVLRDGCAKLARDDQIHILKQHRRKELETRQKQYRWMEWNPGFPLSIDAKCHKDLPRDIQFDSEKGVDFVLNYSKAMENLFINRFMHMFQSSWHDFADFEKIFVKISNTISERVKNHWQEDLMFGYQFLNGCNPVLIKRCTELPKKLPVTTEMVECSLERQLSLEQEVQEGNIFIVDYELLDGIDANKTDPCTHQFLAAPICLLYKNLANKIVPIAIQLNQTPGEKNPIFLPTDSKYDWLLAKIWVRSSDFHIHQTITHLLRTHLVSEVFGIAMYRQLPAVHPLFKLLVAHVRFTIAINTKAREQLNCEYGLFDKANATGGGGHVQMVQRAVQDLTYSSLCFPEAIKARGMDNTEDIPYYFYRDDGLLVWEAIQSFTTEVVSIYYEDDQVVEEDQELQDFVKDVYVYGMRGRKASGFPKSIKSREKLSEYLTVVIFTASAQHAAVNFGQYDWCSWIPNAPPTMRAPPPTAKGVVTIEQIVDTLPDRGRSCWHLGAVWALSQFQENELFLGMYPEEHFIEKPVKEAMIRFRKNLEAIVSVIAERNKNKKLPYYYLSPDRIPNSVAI
ASSAY_NOTES: Ex vivo arachidonic acid metabolism of rat pleural exudate cells after oral dosing, lipoxygenase products (5-HETE, leukotriene B₄)
Type: in vivo, Sprague-Dawley rats
TEST_SETTINGS: rat, po, 30 mpk; exudate cells stimulated with 10 µg/ml calcium ionophore A-23187; read-out: %INH., p.o. Lipoxygenase (mpk)
Source text: This assay determines the ability of orally administered compounds to inhibit arachidonic acid metabolism with rat pleural exudate cells, via the lipoxygenase and/or cyclooxygenase enzymes. Sprague-Dawley rats (250 - 275 gm) are fasted overnight. […] The arachidonic acid metabolites 12-HHT (cyclooxygenase), 5-HETE, and leukotriene B₄ (lipoxygenase) are eluted using an acetonitrile methanol gradient and detected by UV absorption at 235 and 270 nm. […]
VALUE_TYPE: inhibition at 30 mg/kg (%)

COc1ccc(-n2nc(C(=O)c3ccc(C)cc3)cc2-c2ccc(C)cc2)cc1; 62
COc1ccc(-n2nc(/C(=C\C(=O)N(C)O)c3ccc(Cl)cc3)cc2-c2ccc(C)cc2)cc1; 12

1. CCOC(=O)CC(c1cc(-c2ccc(C)cc2)n(-c2ccc(OC)cc2)n1)c1cccc2ccccc12 (stereo not shown)
2. COc1ccc(-n2nc(/C(=C/C(=O)N(C)O)c3ccc(-c4ccccc4)cc3)cc2-c2ccc(C)cc2)cc1
In: inhibition at 30 mg/kg comparison. Which is larger, 1 or 2 ? Select an item and report its label.
Out: 1
